protocol: Cytotoxicity against HEL cells assessed as alteration of cell morphology after 3 days by microscopic analysis
Assay type: toxicity, cell-based
condition set: human
readout kind: MCC at 72 h (µM)
Output spec: scalar in µM, unitless text.

Completed entries (count: 3):
structure string	MCC at 72 h (µM)
CCn1c(=O)n(O)c(=O)c2cc(-c3cn(Cc4ccccc4C)nn3)ccc21	20
Cn1c(=O)n(O)c(=O)c2cc(-c3cn(Cc4ccc(F)c(F)c4)nn3)ccc21	100
CCn1c(=O)n(O)c(=O)c2cc(-c3cn(Cc4ccc(F)cc4)nn3)ccc21	100

Next up:
Challenge: So what's the measured MCC at 72 h for this one? Cc1ccccc1Cn1cc(-c2ccc3c(c2)c(=O)n(O)c(=O)n3C)nn1
Response given: 100
